Biological target: T1, PSD-95 PDZ1 domain (residues 55-152) (human, UniProt P78352 55-152)
T1 construct: Gly-Pro left at the N-terminus after HRV 3C cleavage of the tag; PSD-95, human, PDZ1, residues 55-152 of UniProt P78352 [98-195 of P78352-2]; Vector pOPINF; source: E. coli BL21(DE3), purified (Ni-NTA, HRV 3C tag cleavage, negative Ni-NTA, Superdex200 SEC); not shown: His6, N-terminal, cleaved
T1 sequence (P78352 other isoform, or with tags, fused parts or gaps): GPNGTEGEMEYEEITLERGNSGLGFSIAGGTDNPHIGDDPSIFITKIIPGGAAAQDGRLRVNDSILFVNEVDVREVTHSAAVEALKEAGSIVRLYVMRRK
Assay: ITC; 5 mM RRESEI in the syringe, PDZ1-2, PDZ1 or PDZ2 in the cell at nominal 0.13 mM; 25°C; 20 mM Tris-HCl, 150 mM NaCl, pH8.5; MicroCal VP-ITC; PDZ1-2 fitted assuming a single class of sites
Conditions: both partners purified
pKd: −log10 of the molar value.
OUTCOME_MEASURE: pKd

1. RRESEI (last 6 residues of the inwardly rectifying potassium channel Kir2.1 (C-terminus, type I PDZ motif ESEI); also called RRESEI ligand; ligand peptide; source: synthetic peptide, 98% purity (Peptide Protein Research Ltd.)) [RRESEI peptide (last 6 residues of Kir2.1)]; 5.22
